Ref: patent US6462047B1

Biological target: human recombinant PDE5 (Homo sapiens, UniProt O76074)
Experiment: Inhibitory effect on cGMP-PDE (one-step assay adapted from Wells et al.)
Conditions: human recombinant PDE5, 0.15 μM 8-[H3]-cGMP, 30 minutes incubation, 2% DMSO
Lab note: anything with IC50 below 30 nM is marked condition met; values at 30 nM or higher are marked condition not met.

O=C(/C=C/c1ccc(CN2CCCC2)s1)N1CCc2c([nH]c3ccccc23)[C@H]1c1ccc2c(c1)CCO2    condition not met
CN1CCN(c2ccc(/C=C/C(=O)N3CCc4c([nH]c5ccccc45)[C@H]3c3ccc4c(c3)CCO4)cn2)CC1    condition met
O=C(/C=C/c1ccccn1)N1CCc2c([nH]c3ccccc23)C1c1ccccc1 (stereo not drawn)    condition not met
CN(C)Cc1ccc(/C=C/C(=O)N2CCc3c([nH]c4ccccc34)[C@H]2c2ccc3c(c2)CCO3)s1    condition met
COC(=O)c1ccc(/C=C/C(=O)N2CCc3c([nH]c4ccccc34)[C@H]2c2ccc3c(c2)CCO3)nc1    condition met
O=C(/C=C/c1ccc(N2CCCC2)nc1)N1CCc2c([nH]c3ccccc23)[C@H]1c1ccc2c(c1)CCO2    condition met
CN1CCN(Cc2ccc(/C=C/C(=O)N3CCc4c([nH]c5ccccc45)[C@H]3c3ccc4c(c3)CCO4)s2)CC1    condition met
O=C(/C=C/c1ccccn1)N1CCc2c([nH]c3ccccc23)C1c1ccc2c(c1)OCO2 (stereo not drawn)    condition not met
CN(C)Cc1ccc(/C=C/C(=O)N2CCc3c([nH]c4ccccc34)[C@H]2c2ccc3c(c2)CCO3)o1    condition met
O=C(/C=C/c1cnc(N2CCCC2)nc1)N1CCc2c([nH]c3ccccc23)[C@H]1c1ccc2c(c1)CCO2    condition met
CNc1ccc(/C=C/C(=O)N2CCc3c([nH]c4ccccc34)[C@H]2c2ccc3c(c2)CCO3)cn1    condition met
CN1CCN(c2ncc(/C=C/C(=O)N3CCc4c([nH]c5ccccc45)[C@H]3c3ccc4c(c3)CCO4)cn2)CC1    condition met
O=C(/C=C/c1ccc([N+](=O)[O-])s1)N1CCc2c([nH]c3ccccc23)[C@H]1c1ccc2c(c1)CCO2    condition not met
O=C(/C=C/c1ccncc1)N1CCc2c([nH]c3ccccc23)C1c1ccc2c(c1)OCO2 (stereo not drawn)    condition not met
CN(C)c1ccc(/C=C/C(=O)N2CCc3c([nH]c4ccccc34)[C@H]2c2ccc3c(c2)CCO3)cn1    condition met

###

Catalogue of IC50 readings, one per entry.
Target: human recombinant PDE5 (Homo sapiens)
Assay: Inhibitory effect on cGMP-PDE (one-step assay adapted from Wells et al.)
Details: human recombinant PDE5, 0.15 μM 8-[H3]-cGMP, 30 minutes incubation, 2% DMSO
EXPERIMENTAL_ENDPOINT: IC50 (nM)

O=C(O)c1ccc(/C=C/C(=O)N2CCc3c([nH]c4ccccc34)[C@H]2c2ccc3c(c2)CCO3)nc1    3
CN(C)Cc1ccc(/C=C/C(=O)N2CCc3c([nH]c4ccccc34)[C@H]2c2ccc3c(c2)CCO3)cn1    30
O=C(/C=C/c1cccnc1)N1CCc2c([nH]c3ccccc23)C1c1ccc2c(c1)CCO2 (centres unmarked)    14
CN(C)Cc1occc1/C=C/C(=O)N1CCc2c([nH]c3ccccc23)[C@H]1c1ccc2c(c1)CCO2    40
Nc1ncc(/C=C/C(=O)N2CCc3c([nH]c4ccccc34)[C@H]2c2ccc3c(c2)CCO3)cn1    7
O=C(/C=C/c1cccnc1)N1CCc2c([nH]c3ccccc23)C1c1ccc2c(c1)OCO2 (centres unmarked)    58
CN(C)CCOc1ccc(/C=C/C(=O)N2CCc3c([nH]c4ccccc34)[C@H]2c2ccc3c(c2)CCO3)cn1    10
O=C(/C=C/c1cncnc1)N1CCc2c([nH]c3ccccc23)[C@H]1c1ccc2c(c1)CCO2    40
